Origin of the recorded values: patent US20110105554A1

assay-target: Dictyostelium myosin-2 (Dictyostelium discoideum, UniProt P08799, C312Y/S249N)
Construct: comprising amino acids 1-698, 1-765, and 1-839 respectively; made in house
Sequence (P08799 1-765 S249N/C312Y): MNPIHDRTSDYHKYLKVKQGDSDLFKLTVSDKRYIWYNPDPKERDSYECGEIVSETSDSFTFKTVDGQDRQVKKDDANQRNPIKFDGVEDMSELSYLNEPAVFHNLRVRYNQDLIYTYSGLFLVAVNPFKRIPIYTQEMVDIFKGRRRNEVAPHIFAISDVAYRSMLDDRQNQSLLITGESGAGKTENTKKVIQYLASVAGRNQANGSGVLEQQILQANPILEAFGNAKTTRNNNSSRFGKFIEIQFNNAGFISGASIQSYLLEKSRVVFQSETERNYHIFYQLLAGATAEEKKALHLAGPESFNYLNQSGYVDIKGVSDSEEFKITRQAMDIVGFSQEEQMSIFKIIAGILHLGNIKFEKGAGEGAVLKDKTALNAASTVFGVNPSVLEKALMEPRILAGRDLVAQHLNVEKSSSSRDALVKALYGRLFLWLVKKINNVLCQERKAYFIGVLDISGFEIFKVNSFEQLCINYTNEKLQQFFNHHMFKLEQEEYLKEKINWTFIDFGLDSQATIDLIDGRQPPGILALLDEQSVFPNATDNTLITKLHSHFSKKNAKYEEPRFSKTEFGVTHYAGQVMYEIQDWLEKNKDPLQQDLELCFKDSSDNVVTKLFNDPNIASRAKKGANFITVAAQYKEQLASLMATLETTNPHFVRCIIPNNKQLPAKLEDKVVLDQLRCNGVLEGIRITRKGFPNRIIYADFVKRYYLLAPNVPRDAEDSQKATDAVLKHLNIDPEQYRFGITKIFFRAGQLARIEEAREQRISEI
protocol: Actin-activated ATPase activity (NADH-coupled assay), Dictyostelium myosin-2
Assay type: biochemical
condition-info: 30 μM actin; read-out: IC50, ATPase activity in the presence of actin
Description: Based on the structure of the myosin-2 motor domain with bound PBP, we performed molecular modeling studies to elucidate the specificity of PBP-binding to myosins from different classes. […] The concentrations of PBP required for half-maximal inhibition of the different myosin motors was calculated from fitting the data to hyperbolae. […]
property-name: pIC50
Conceptually, pIC50 converts a concentration in mol/L into minus its log10.

**Query** Answer with the recorded pIC50 of Oc1c(F)cc(F)cc1-c1[nH]c(Br)c(Br)c1Br [KIN-74] only.
**Result** 4.05
